Source listed as patent US20230151091A1.

The reader will find reported log10(koff) values listed item by item below.
Biological target: T1, mouse MuSK (mouse, UniProt Q61006 22-494, limits assumed)
T1 construct: Coated on ELISA plates or on the Biacore chip; also called full length mouse MuSK; mouse MuSK (in house produced in HEK293 cells)
T1 sequence (looked up): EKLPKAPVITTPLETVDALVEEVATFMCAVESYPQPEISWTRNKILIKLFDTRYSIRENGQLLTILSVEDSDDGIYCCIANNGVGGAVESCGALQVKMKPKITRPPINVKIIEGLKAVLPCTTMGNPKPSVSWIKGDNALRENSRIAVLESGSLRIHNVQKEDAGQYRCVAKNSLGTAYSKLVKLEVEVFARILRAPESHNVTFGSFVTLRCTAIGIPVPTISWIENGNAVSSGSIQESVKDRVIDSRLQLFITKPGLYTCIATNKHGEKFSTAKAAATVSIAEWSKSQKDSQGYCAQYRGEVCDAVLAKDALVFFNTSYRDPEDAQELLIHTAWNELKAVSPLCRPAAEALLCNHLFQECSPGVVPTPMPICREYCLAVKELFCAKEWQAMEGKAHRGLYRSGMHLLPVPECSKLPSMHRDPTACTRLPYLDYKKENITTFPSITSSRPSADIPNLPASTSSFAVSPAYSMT
Experiment: Biacore T200, MuSK on chip (200RU), 22.2 nM Fab, dissociation pH 5.5
Recorded koff (log10, s⁻¹)

Examples from the recorded data:
3B2 Fab (Fab, V domains shown, Fab format; also called Fab 3B2) VH: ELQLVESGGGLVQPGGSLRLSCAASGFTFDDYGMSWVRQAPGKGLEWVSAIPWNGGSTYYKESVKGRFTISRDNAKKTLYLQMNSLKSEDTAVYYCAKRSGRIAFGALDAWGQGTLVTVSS VL: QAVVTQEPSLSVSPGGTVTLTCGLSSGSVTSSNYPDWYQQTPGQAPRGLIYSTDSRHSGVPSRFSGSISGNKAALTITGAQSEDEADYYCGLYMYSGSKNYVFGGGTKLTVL :: -0.96
3B2g2m1 Fab (Fab, V domains shown, Fab format) VH: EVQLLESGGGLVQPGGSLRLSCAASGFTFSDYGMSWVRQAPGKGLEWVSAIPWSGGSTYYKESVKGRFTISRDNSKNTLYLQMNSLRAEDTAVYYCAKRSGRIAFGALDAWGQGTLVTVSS VL: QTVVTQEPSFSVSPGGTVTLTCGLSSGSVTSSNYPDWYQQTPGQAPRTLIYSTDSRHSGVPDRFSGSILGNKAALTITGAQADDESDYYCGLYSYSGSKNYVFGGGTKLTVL :: -1.17
X9 Fab (Fab, V domains shown, Fab format) VH: EVQLVESGGGLVQPGGSLRLSCAASGFTFSSSSIHWVRQAPGKGLEWVASIYSSSGSTYYADSVKGRFTISADTSKNTAYLQMNSLRAEDTAVYYCARSGGEFYITSYYGMDYWGQGTLVTVSS VL: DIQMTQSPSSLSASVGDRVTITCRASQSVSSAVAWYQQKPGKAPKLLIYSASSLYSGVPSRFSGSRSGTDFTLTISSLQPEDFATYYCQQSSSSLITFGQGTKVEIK :: -2.98
X17 Fab (Fab, V domains shown, Fab format) VH: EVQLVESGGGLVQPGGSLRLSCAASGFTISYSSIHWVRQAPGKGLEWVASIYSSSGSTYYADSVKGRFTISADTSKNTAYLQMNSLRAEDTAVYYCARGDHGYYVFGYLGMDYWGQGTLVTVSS VL: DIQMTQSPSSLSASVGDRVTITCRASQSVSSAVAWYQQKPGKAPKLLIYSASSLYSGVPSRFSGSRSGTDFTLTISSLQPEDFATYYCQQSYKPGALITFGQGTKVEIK :: -2.70
X2m4 Fab (Fab, V domains shown, Fab format) VH: EVQLVESGGGLVQPGGSLRLSCAASGFTVSSSSIHWVRQAPGKGLEWVASISSSYGSTSYADSVKGRFTISADTSKNTAYLQMNSLRAEDTAVYYCARSEGDRYVSGYSGLDYWGQGTLVTVSS VL: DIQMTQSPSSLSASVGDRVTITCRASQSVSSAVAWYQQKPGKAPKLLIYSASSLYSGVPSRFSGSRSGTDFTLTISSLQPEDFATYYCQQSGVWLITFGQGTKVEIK :: -2.38

QUERY: Quick one: log10(koff) for X2 Fab (Fab, V domains shown, Fab format) VH: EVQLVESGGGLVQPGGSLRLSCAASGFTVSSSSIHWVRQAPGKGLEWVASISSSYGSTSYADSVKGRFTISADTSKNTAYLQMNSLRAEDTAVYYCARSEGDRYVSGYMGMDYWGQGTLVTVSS VL: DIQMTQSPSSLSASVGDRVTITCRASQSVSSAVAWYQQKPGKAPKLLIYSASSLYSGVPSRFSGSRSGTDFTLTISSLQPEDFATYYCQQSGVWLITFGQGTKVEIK ?
RESULT: -3.29

QUERY: Same question, X3 Fab (Fab, V domains shown, Fab format) VH: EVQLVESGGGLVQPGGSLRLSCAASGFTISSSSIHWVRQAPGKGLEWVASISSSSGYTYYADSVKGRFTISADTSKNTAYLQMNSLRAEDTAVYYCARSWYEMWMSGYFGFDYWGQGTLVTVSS VL: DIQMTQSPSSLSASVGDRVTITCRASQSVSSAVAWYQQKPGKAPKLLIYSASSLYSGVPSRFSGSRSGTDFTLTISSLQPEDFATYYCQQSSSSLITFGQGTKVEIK this time
RESULT: -1.61
